Test system: OVCAR-5 ovarian
ASSAY COMMENT: NCI tumour cell line growth inhibition, 48 h
MEASURED PARAMETER: GI50

Reported GI50 for `COc1ccc(-c2nn(-c3cccc(Cl)c3)cc2/C=C2\C(=N)N(c3ccccc3)N=C2N)cc1` was 2.08 µM

Record summary for `NC1(C(=O)O)CSSC1` : reported GI50 = 33.2 µM

response.value for `CC(C)(C)OC(=O)n1c(Cl)c(C(=O)N=C=S)c2ccccc21` (field: GI50) = 23 µM

Short answer for `CCCC(=O)Nc1cn(COC)c(C(=O)N2C[C@H]3C[C@@]34C2=CC(=O)c2[nH]cc(C)c24)n1` : GI50 was 6.13 µM

For reference, reported GI50 for `CC(=O)c1c(Nc2ccc(F)c(F)c2F)[nH]c2c(F)cc(F)cc2c1=O` stands at 0.552 µM

---

Tested on: UACC-257 melanoma
ASSAY COMMENT: NCI tumour cell line growth inhibition, 48 h; in the data active means GI50 below about 0.43 µM; inactive means the rest
The reply should be one of these categories: active, inactive

Inquiry: Tell me the recorded outcome of this test for `Fc1ccc(-c2cc(-c3cn[nH]c3-c3ccccn3)ccn2)cc1` .
Reply text: inactive

Inquiry: Just curious, what result did `COc1ccc(-c2nn(-c3cccc(Cl)c3)cc2-c2cc(-c3cccs3)no2)cc1` get here?
Reply text: inactive

Inquiry: For `CCOC(=O)/N=c1\ssc(Cl)c1Cl` , what call appears in the results of this test?
Reply text: inactive

Inquiry: Give the logged outcome of this assay for the following compound: `CC(=O)c1c(Nc2ccc(F)c(F)c2F)[nH]c2c(F)cc(F)cc2c1=O`
Reply text: active

Inquiry: Recorded call for `C#CCn1cc(C=C2C(=O)NC(=S)NC2=O)c2cc(Cl)ccc21` ?
Reply text: inactive

Inquiry: Could you kindly confirm the outcome this assay logged for N#CC1=C(N)Oc2c(sc3c(Br)cccc23)C1c1ccc(F)cc1 (stereo unspecified) ?
Reply text: inactive

---

Tested on: SK-OV-3 ovarian
ASSAY COMMENT: NCI tumour cell line growth inhibition, 48 h
Can you tell me GI50 for the items I'm about to list?

The compound listed as `CC(=O)[O-].O=[N+]([O-])c1ccc([O-])c(C=NCCN=Cc2cc([N+](=O)[O-])ccc2[O-])c1.[Mn+3]` shows GI50 equal to > 100 µM

The compound `O=C(Nc1cccc(Cl)c1)c1cc(Cl)ccc1O` showed GI50 equal to 0.582 µM

The reported GI50 of the compound `CC(C)(C)OC(=O)n1c(Cl)c(C(=O)N=C=S)c2ccccc21` was > 100 µM

The value of GI50 measured for the compound `COc1ccc(-c2nn(-c3cccc(Cl)c3)cc2-c2cc(-c3cccs3)no2)cc1` turned out to be 8.89 µM

The value of GI50 measured for the compound `COc1cc(-c2nn3c(=O)n(-c4ccc(Cl)cc4)c(=O)nc3s2)cc(OC)c1OC` turned out to be 33.5 µM

Notebook: `C#CCn1cc(C=C2C(=O)NC(=S)NC2=O)c2cc(Cl)ccc21` , GI50 read as 2.87 µM

---

System: DU-145 prostate
ASSAY COMMENT: NCI tumour cell line growth inhibition, 48 h
MEASURED PARAMETER: TGI

Value of TGI reported for the molecule `NC(=O)c1c(NC(=O)c2cccc(C(F)(F)F)c2)sc2c1CCC(=O)C2` is > 100 µM

`O=C1c2cc3c(cc2-c2c1c1cc(F)c(F)cc1c(=O)n2C[C@H](O)CO)OCO3` yielded TGI of > 100 µM

For record O=C1CCC(CCc2nc3ccccc3[nH]2)(c2ccccc2)C(=O)N1 (stereo unspecified) the listed TGI is > 100 µM

For reference, reported TGI for `Cc1cc(Nc2cc(N3CCN(C)CC3)nc(C#Cc3ccccc3)n2)n[nH]1` stands at 18.2 µM

Item: `CCOP(=O)(COCCn1nc(Br)c(=O)[nH]c1=O)OCC` | TGI: > 100 µM

Please fill in: TGI reported for `COc1cccc(Nc2nc3c([nH]2)c(=O)n(C)c(=O)n3C)c1` = > 10 µM
